Where do the numbers come from? From the RNAGym collection of RNA variant scans (doi:10.7554/elife.90254).

B1: LINE1-full (parent)
chain: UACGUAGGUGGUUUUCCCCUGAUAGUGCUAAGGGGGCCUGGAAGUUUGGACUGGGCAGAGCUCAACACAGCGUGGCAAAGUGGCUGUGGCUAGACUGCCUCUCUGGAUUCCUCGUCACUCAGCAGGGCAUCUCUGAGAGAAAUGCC

Variants of: B1
assay.explanation: self-cleavage, relative activity (ratio to wild type); higher = more cleavage; in vitro, sequencing; the parent is a self-cleaving ribozyme
Assignment: determine reported self-cleavage for the given variants.
Respond with the number and no other words.

// U12G U81A : self-cleavage value = 2.33

// A69U G80A : self-cleavage value = 0.3

// U12C U15A : self-cleavage value = 0.7

// C103U G114A : self-cleavage value = 1.19

// U45C A59G : self-cleavage value = 0.1

// U15C U46A : self-cleavage value = 1.41

// A57G A94G : self-cleavage value = 0.16

// U45C A65C : self-cleavage value = 0.08

// A124G A142G : self-cleavage value = 0.72

// U20C U143A : self-cleavage value = 1.5

// U62G U73C : self-cleavage value = 0
